# Organism: Rattus norvegicus
# measurement-description: DrugMatrix - Regimen: Daily Repeat
# Format: toxicity, organism-based, Sprague-Dawley
# Parameters: regimen Daily Repeat, gender Male, age 6-8 weeks
# condition-info: in vivo, po, 0 mg/kg, 72 h, tissue Blood, route oral GAVAGE, dose level Control, time 3 day, vehicle .5 % CMC
readout-name: LYMPHOCYTE (%)
Record the value in %, omitting the unit from your answer.

molecule	unit-abbreviation	LYMPHOCYTE
Cc1ccc(/N=C/N(C)/C=N/c2ccc(C)cc2C)c(C)c1	%	91.67
NC1=NC(=O)C(c2ccccc2)O1 (stereo not given)	%	83.33
CN1CCN(CCCN2c3ccccc3Sc3ccc(Cl)cc32)CC1	%	88
ClC(Br)Br	%	77.83
ClC(Cl)Br	%	77.83
Cc1nc2n(c(=O)c1CCN1CCC(c3noc4cc(F)ccc34)CC1)CCCC2	%	84.8

Then there is this molecule:
get_value(item= `O=C(CCCN1CC=C(n2c(=O)[nH]c3ccccc32)CC1)c1ccc(F)cc1` , readout=LYMPHOCYTE) returns 76.48

====

# Organism: Rattus norvegicus
# measurement-description: DrugMatrix - Regimen: Daily Repeat
# Type: toxicity, organism-based, Sprague-Dawley
# Set-up: regimen Daily Repeat, gender Male, age 6-8 weeks
# condition-info: in vivo, po, 120 mg/kg, 72 h, tissue Blood, route oral GAVAGE, dose level High, time 3 day, vehicle 100 % WATER
readout-name: ABSOLUTE LYMPHOCYTE (CELLS/uL)
Record the value in CELLS/uL, omitting the unit from your answer.

get_value(item= `c1ccc([C@H]2CN3CCSC3=N2)cc1` , readout=ABSOLUTE LYMPHOCYTE) returns 11350

====

# Species: Rattus norvegicus
# measurement-description: DrugMatrix - Regimen: Daily Repeat
# Type: toxicity, organism-based, Sprague-Dawley
# Set-up: regimen Daily Repeat, gender Male, age 6-8 weeks
# condition-info: in vivo, iv, 0 mg/kg, 120 h, tissue Plasma, dose level Control, time 5 day, vehicle 100 % SALINE
Starred links: 1 amine or outer side, 2 acyl side, 3 side chain; linkers in the order of their positions; H or OH if unused. Positions of bridges follow the written chain, without caps; N, C: chain ends. Non-standard residues stand in square brackets, D forms with d. Residues, ends and D or L forms follow the SMILES beside them. Chains are numbered I, II in the order given. Actinocin(9to1) = Cc1c2oc3c(C)ccc(C(=O)[*:1])c3nc-2c(C(=O)[*:2])c(N)c1=O; NMeV = CN[C@H](C(=O)O)C(C)C; Sar = CNCC(=O)O
readout-name: ALKALINE PHOSPHATASE (u/L)
Record the value in u/L, omitting the unit from your answer.

Recorded results for 2 molecules are shown here.
molecule	readout-name	unit-abbreviation	experimental-result
COc1cc2c3cc1Oc1cc(ccc1O)C[C@@H]1c4c(cc(OC)c(O)c4Oc4ccc(cc4)C[C@@H]3N(C)CC2)CC[N+]1(C)C.[Cl-]	ALKALINE PHOSPHATASE	u/L	364.67
CC[C@]1(O)C[C@H]2CN(CCc3c([nH]c4ccccc34)[C@@](C(=O)OC)(c3cc4c(cc3OC)N(C=O)[C@H]3[C@@](O)(C(=O)OC)[C@H](OC(C)=O)[C@]5(CC)C=CCN6CC[C@]43[C@@H]65)C2)C1	ALKALINE PHOSPHATASE	u/L	364.83

get_value(item= Cc1c2oc3c(C)ccc(C(=O)N[C@@H]4C(=O)N[C@H](C(C)C)C(=O)N5CCC[C@H]5C(=O)N(C)CC(=O)N(C)[C@@H](C(C)C)C(=O)O[C@@H]4C)c3nc-2c(C(=O)N[C@@H]2C(=O)N[C@H](C(C)C)C(=O)N3CCC[C@H]3C(=O)N(C)CC(=O)N(C)[C@@H](C(C)C)C(=O)O[C@@H]2C)c(N)c1=O [DACTINOMYCIN] (I: T[dV]P[Sar][NMeV] / II: T[dV]P[Sar][NMeV]; ester I:1-I:C, II:1-II:C; linker I:N-II:N via Actinocin(9to1)) , readout=ALKALINE PHOSPHATASE) returns 370

get_value(item= `Cc1ccc(N(CC2=NCCN2)c2cccc(O)c2)cc1` , readout=ALKALINE PHOSPHATASE) returns 368.33

====

Below, each entry is listed alongside its reported ASPARTATE AMINOTRANSFERASE.
# Organism: Rattus norvegicus
# measurement-description: DrugMatrix - Regimen: Daily Repeat
# Format: toxicity, organism-based, Sprague-Dawley
# Design: regimen Daily Repeat, gender Male, age 6-8 weeks
# condition-info: in vivo, po, 0 mg/kg, […], tissue Plasma, route oral GAVAGE, dose level Control, time 14 day, vehicle .5 % CMC
Include the unit right after the number.

Recorded results for 3 molecules are shown here.
substance-smiles	readout-name	experimental-result
ClC(Br)Br	ASPARTATE AMINOTRANSFERASE	81 u/L
COc1ccc(C(=O)Nc2c(Cl)c[n+]([O-])cc2Cl)c2ccc(C(F)(F)F)nc12	ASPARTATE AMINOTRANSFERASE	74.83 u/L
ClC(Cl)Br	ASPARTATE AMINOTRANSFERASE	81 u/L

Then there is this molecule:
get_value(item= `CCOP(=S)(OCC)Oc1nc(Cl)c(Cl)cc1Cl` , readout=ASPARTATE AMINOTRANSFERASE) returns 84.17 u/L

====

Below, each entry is listed alongside its reported LEUKOCYTE COUNT.
# Species: Rattus norvegicus
# measurement-description: DrugMatrix - Regimen: Daily Repeat
# Assay type: toxicity, organism-based, Sprague-Dawley
# Design: regimen Daily Repeat, gender Male, age 6-8 weeks
# condition-info: in vivo, po, 0 mg/kg, 120 h, tissue Blood, route oral GAVAGE, dose level Control, time 5 day, vehicle 100 % WATER
Record the value in x10E3/uL, omitting the unit from your answer.

get_value(item= COc1cc2nc(N3CCN(C(=O)C4COc5ccccc5O4)CC3)nc(N)c2cc1OC (stereo not given) , readout=LEUKOCYTE COUNT) returns 8.42

====

Below, each entry is listed alongside its reported PLATELET COUNT.
# Species on record: Rattus norvegicus
# measurement-description: DrugMatrix - Regimen: Daily Repeat
# Format: toxicity, organism-based, Sprague-Dawley
# Design: regimen Daily Repeat, gender Male, age 6-8 weeks
# condition-info: in vivo, po, 0 mg/kg, […], tissue Blood, route oral GAVAGE, dose level Control, time 14 day, vehicle .5 % CMC

molecule	PLATELET COUNT
COc1ccc(C(=O)Nc2c(Cl)c[n+]([O-])cc2Cl)c2ccc(C(F)(F)F)nc12 [SCH-351591]	1083.83 x10E3/uL
ClC(Cl)Br [BROMODICHLOROMETHANE]	974.83 x10E3/uL
ClC(Br)Br [DIBROMOCHLOROMETHANE]	974.83 x10E3/uL

Then there is this molecule:
get_value(item= CCOP(=S)(OCC)Oc1nc(Cl)c(Cl)cc1Cl [CHLORPYRIFOS] , readout=PLATELET COUNT) returns 1184.33 x10E3/uL

====

Below, each entry is listed alongside its reported SODIUM.
# Species on record: Rattus norvegicus
# measurement-description: DrugMatrix - Regimen: Daily Repeat
# Type: toxicity, organism-based, Sprague-Dawley
# Design: regimen Daily Repeat, gender Male, age 6-8 weeks
# condition-info: in vivo, po, 0 mg/kg, 72 h, tissue Plasma, route oral GAVAGE, dose level Control, time 3 day, vehicle .5 % CMC
Record the value in MEQ/L, omitting the unit from your answer.

Recorded results for 3 molecules are shown here.
molecule	SODIUM / MEQ/L
CC(C)(C)NC(=O)[C@@H]1C[C@@H]2CCCC[C@@H]2CN1C[C@@H](O)[C@H](Cc1ccccc1)NC(=O)[C@H](CC(N)=O)NC(=O)c1ccc2ccccc2n1	141.28
N=C(N)NCCN1CCCCCCC1	143.5
Nc1ccn([C@H]2CC[C@@H](CO)O2)c(=O)n1	144.17

get_value(item= NC1=NC(=O)C(c2ccccc2)O1 (centres undefined) , readout=SODIUM) returns 149.5

get_value(item= `CCCCc1oc2ccccc2c1C(=O)c1cc(I)c(OCCN(CC)CC)c(I)c1` , readout=SODIUM) returns 149.67

get_value(item= `O=C(CCCN1CC=C(n2c(=O)[nH]c3ccccc32)CC1)c1ccc(F)cc1` , readout=SODIUM) returns 148

get_value(item= `OCCN(CCO)c1nc(N2CCCCC2)c2nc(N(CCO)CCO)nc(N3CCCCC3)c2n1` , readout=SODIUM) returns 143.5

get_value(item= `Cc1nc2n(c(=O)c1CCN1CCC(c3noc4cc(F)ccc34)CC1)CCCC2` , readout=SODIUM) returns 149.67

get_value(item= `Cc1ccc2cc3c(ccc4ccccc43)c3c2c1CC3` , readout=SODIUM) returns 147.33

get_value(item= C1CCC(C(CC2CCCCN2)C2CCCCC2)CC1 (centres undefined) , readout=SODIUM) returns 145.83
